Provenance of the data: patent US6284768A

molecular target: p56lck GST-SH2 (lck SH2 domain) (Homo sapiens, UniProt P06239); construct: GST (N); test: Receptor-ligand equilibrium binding constants by surface plasmon resonance (biosensor), lck SH2 domain; conditions: Table 1, compounds of formula (II)
Sequence (P06239 127-224 limits assumed): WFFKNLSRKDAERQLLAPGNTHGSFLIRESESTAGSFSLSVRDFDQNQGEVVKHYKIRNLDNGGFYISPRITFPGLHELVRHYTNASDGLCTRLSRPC

[
  {
    "MOLECULE": "COc1ccc(Cn2ccc(C)c(NC(=O)[C@H](Cc3ccc(NC(=O)C(=O)O)cc3)NC(=O)N(C)c3cccc4ccccc34)c2=O)cc1 [Compound 25]",
    "Kd": "2.1 µM"
  },
  {
    "MOLECULE": "Cc1ccn(Cc2ccc3c(c2)OCO3)c(=O)c1NC(=O)C(Cc1ccc(C(C)(C)C(=O)O)cc1)NC(=O)C(C)(C)c1ccc2ccccc2c1 (stereo not shown) [Compound 154]",
    "Kd": "1.2 µM"
  },
  {
    "MOLECULE": "COc1ccc(Cn2ccc(C)c(NC(=O)[C@H](Cc3ccc(CC(=O)O)cc3)NC(=O)C3(c4ccccc4)CCOCC3)c2=O)cc1 [Compound 80]",
    "Kd": "20 µM"
  },
  {
    "MOLECULE": "COC1CCC(Cn2ccc(C)c(NC(=O)C(Cc3ccc(C(C)(C)C(=O)O)cc3)NC(=O)Cc3ccc4ccccc4c3)c2=O)CC1 (stereo not shown) [Compound 239]",
    "Kd": "3.2 µM"
  },
  {
    "MOLECULE": "COc1ccc(Cn2ccc(C)c(NC(=O)C(Cc3ccc(C(C)(C)C(=O)O)cc3)NC(=O)C(C)(C)c3ccc(C(C)(C)C)cc3)c2=O)cc1 (stereo not shown) [Compound 186]",
    "Kd": "0.78 µM"
  },
  {
    "MOLECULE": "COc1ccc(Cn2ccc(C)c(NC(=O)C(Cc3ccc(C(C)(C)C(=O)O)cc3)NC(=O)Cc3c(OC)ccc4ccccc34)c2=O)cc1 (stereo not shown) [Compound 187]",
    "Kd": "0.18 µM"
  },
  {
    "MOLECULE": "Cc1ccn(CC2CCCCC2)c(=O)c1NC(=O)C(Cc1ccc(C(C)(C)C(=O)O)cc1)NC(=O)Cc1cccc2ccccc12 (stereo not shown) [Compound 194]",
    "Kd": "2.3 µM"
  },
  {
    "MOLECULE": "COc1ccc(Cn2ccc(C)c(NC(=O)[C@H](Cc3ccc(NC(=O)C(=O)O)cc3)NC(=O)Cc3ccc(N(C)C)cc3)c2=O)cc1 [Compound 22]",
    "Kd": "1.8 µM"
  },
  {
    "MOLECULE": "COc1ccc(Cn2ccc(C)c(NC(=O)[C@H](Cc3ccc(NC(=O)C(=O)O)cc3)NC(=O)Cc3ccc4ccccc4c3)c2=O)cc1 [Compound 32]",
    "Kd": "0.35 µM"
  },
  {
    "MOLECULE": "COc1ccc(Cn2ccc(C)c(NC(=O)[C@H](Cc3ccc(CC(=O)O)cc3)NC(=O)Cc3ccccc3Oc3ccccc3)c2=O)cc1 [Compound 73]",
    "Kd": "> 250 µM"
  },
  {
    "MOLECULE": "Cc1ccn(Cc2ccc(O)cc2)c(=O)c1NC(=O)[C@H](Cc1ccc(C(C)(C)C(=O)O)cc1)NC(=O)C(C)(C)c1cccc2ccccc12 [Compound 134]",
    "Kd": "5.7 µM"
  },
  {
    "MOLECULE": "COc1ccc(Cn2ccc(C)c(NC(=O)[C@H](Cc3ccc(NC(=O)C(=O)O)cc3)NC(=O)Cc3ccc(Br)cc3)c2=O)cc1 [Compound 36]",
    "Kd": "1.5 µM"
  },
  {
    "MOLECULE": "COc1ccccc1Cn1ccc(C)c(NC(=O)[C@H](Cc2ccc(CC(=O)O)cc2)NC(=O)Cc2cccc3ccccc23)c1=O [Compound 19]",
    "Kd": "37.2 µM"
  }
]
